Kindly state inhibition at 50 mg/kg for each of the entries shown.
- Tested on: Wheat head blight
- assay.text: whole plant or invertebrate
- Type: cell-based
- reported.conditions: Triticum aestivum, read-out: Fungicidal activity (%) Wheat head blight
Give just the numeric value; % need not be written.

QUERY: Fill in the blank: the reported inhibition at 50 mg/kg of CCCS(=O)(=O)N(N1CC(C)=NNC1=O)S(=O)(=O)CCC is ____.
RESULT: 10

QUERY: Repeat with CC1=NNC(=O)N(NS(=O)(=O)c2ccc3c(c2)OCCO3)C1
RESULT: 10.9

QUERY: Repeat with COc1ccc(S(=O)(=O)NN2CC(C)=NNC2=O)cc1
RESULT: 16.2

QUERY: Repeat with CC1=NNC(=O)N(NS(=O)(=O)c2cccs2)C1
RESULT: 8.1

QUERY: Repeat with CC1=NNC(=O)N(NS(=O)(=O)c2cccc(C)c2)C1
RESULT: 2.7

QUERY: Repeat with CC1=NNC(=O)N(NS(=O)(=O)c2ccc(C(C)(C)C)cc2)C1
RESULT: 13.5

QUERY: Repeat with CC1=NNC(=O)N(NS(=O)(=O)c2cn(C)cn2)C1
RESULT: 17.2

QUERY: Repeat with CC1=NNC(=O)N(NS(=O)(=O)Cc2ccccc2)C1
RESULT: 30

QUERY: Repeat with COC(=O)Nc1nc2ccccc2[nH]1 [Carbendazim, reference compound]
RESULT: 100

QUERY: Repeat with CC1=NNC(=O)N(NS(=O)(=O)c2c(C)cc(C)cc2C)C1
RESULT: 16.2

QUERY: Repeat with CCCS(=O)(=O)NN1CC(C)=NNC1=O
RESULT: 3.3

QUERY: Repeat with CC(=O)Nc1ccc(S(=O)(=O)NN2CC(C)=NNC2=O)cc1
RESULT: 6.7

QUERY: Repeat with CC1=NNC(=O)N(NS(=O)(=O)c2ccc(F)cc2)C1
RESULT: 2.7

QUERY: Repeat with CC1=NNC(=O)N(NS(=O)(=O)C2CC2)C1
RESULT: 10.8

QUERY: Repeat with CC1=NNC(=O)N(NS(=O)(=O)c2ccc(I)cc2)C1
RESULT: 10.8

QUERY: Repeat with CC1=NNC(=O)N(NS(=O)(=O)c2ccsc2)C1
RESULT: 21.2

QUERY: Repeat with CC1=NNC(=O)N(N(S(=O)(=O)c2ccc([N+](=O)[O-])cc2)S(=O)(=O)c2ccc([N+](=O)[O-])cc2)C1
RESULT: 23.3

QUERY: Repeat with CC1=NNC(=O)N(NS(=O)(=O)c2c(C)noc2C)C1
RESULT: 12.1

QUERY: Repeat with CC1=NNC(=O)N(NS(=O)(=O)c2ccc3c(c2)CCO3)C1
RESULT: 33.3

QUERY: Repeat with CC1=NNC(=O)N(NS(=O)(=O)c2ccc(C(F)(F)F)cc2)C1
RESULT: 13.5

QUERY: Repeat with CC1=NNC(=O)N(NS(=O)(=O)c2ccccc2)C1
RESULT: 0
